- ASSAY PROTOCOL: Dose response assessment in nude mice bearing HT1080 xenografts (tumor and plasma human VEGF, tumor size, trough plasma concentration)
- Assay type: in vivo
- CONDITION PARAMETERS: male, athymic nude, mouse, plasma, oral; 1 mg/kg BID, 16 hours after the first day of dosing (n=3)
ASSAY READOUT: concentration at 16 h (µM)
One number for each entry, in µM.

Complete the entry with concentration at 16 h for COc1ccc([C@H]2c3[nH]c4ccc(Cl)cc4c3CCN2C(=O)Oc2ccc(Cl)cc2)cc1 (racemic) [Compound #10]
0.28

====

- Tested on: hypoxia-inducible endogenous VEGF expression
- ASSAY PROTOCOL: Hypoxia-inducible endogenous VEGF expression ELISA in HeLa cells, dose-response (EC50, Table 3)
- CONDITION PARAMETERS: Homo sapiens, read-out: ELISA EC50 μM
ASSAY READOUT: EC50

COMPOUND	OBS VALUE
COCCN(CCCOc1ccc(C2c3[nH]c4ccc(Cl)cc4c3CCN2C(=O)Oc2ccc(F)cc2)cc1)CCOC (centres unmarked)	< 0.008 µM
O=C(Oc1ccc(Cl)cc1)N1CCc2c([nH]c3ccc(Cl)cc23)C1c1ccc(OCC(O)CN2CCSCC2)cc1 (centres unmarked)	< 0.008 µM
O=C(Oc1ccc(F)cc1)N1CCc2c([nH]c3ccc(Cl)cc23)C1c1ccc(OCCCCN2CCCCC2)cc1 (centres unmarked)	< 0.008 µM
O=C(Oc1ccc(Cl)cc1)N1CCc2c([nH]c3ccc(Cl)cc23)C1c1ccc(OCCCCN2CCOCC2)cc1 (centres unmarked)	0.008 to 0.04 µM
O=C(Oc1ccc(F)cc1)N1CCc2c([nH]c3ccc(Cl)cc23)C1c1ccc(OCCCCNCCO)cc1 (centres unmarked)	< 0.008 µM
COc1ccc(OC(=O)N2CCc3c([nH]c4ccc(Cl)cc34)C2c2ccc(OCC3CCCN(C)C3)cc2)cc1 (centres unmarked)	0.04 to 0.2 µM
COCCN(CCCOc1ccc(C2c3[nH]c4ccc(Cl)cc4c3CCN2C(=O)Oc2ccc(Cl)cc2)cc1)CCOC (centres unmarked)	< 0.008 µM
O=C(Oc1ccc(Cl)cc1)N1CCc2c([nH]c3ccc(Cl)cc23)C1c1ccc(OCCCCNCCO)cc1 (centres unmarked)	0.008 to 0.04 µM

Look up EC50 for the entries below, preserving their order.
1. CN1CCCC(COc2ccc(C3c4[nH]c5ccc(Cl)cc5c4CCN3C(=O)Oc3ccc(F)cc3)cc2)C1 (centres unmarked)
2. O=C(Oc1ccc(Cl)cc1)N1CCc2c([nH]c3ccc(Cl)cc23)C1c1ccc(OCCCN2CCN(CCO)CC2)cc1 (centres unmarked)
3. CC(C)NCCCCCCOc1ccc(C2c3[nH]c4ccc(Cl)cc4c3CCN2C(=O)Oc2ccc(F)cc2)cc1 (centres unmarked)
4. O=C(CN1CCOCC1)Nc1ccc(C2c3[nH]c4ccc(Cl)cc4c3CCN2C(=O)Oc2ccc(Cl)cc2)cc1 (centres unmarked)
5. COCCCNCCCCCCOc1ccc(C2c3[nH]c4ccc(Cl)cc4c3CCN2C(=O)Oc2ccc(F)cc2)cc1 (centres unmarked)

1. < 0.008 µM
2. 0.008 to 0.04 µM
3. 0.008 to 0.04 µM
4. 0.008 to 0.04 µM
5. < 0.008 µM

Complete the entry with EC50 for O=C(Oc1ccc(Cl)cc1)N1CCc2c([nH]c3ccc(Cl)cc23)C1c1ccc(OCCCN2CCCCC2)cc1 (centres unmarked)
< 0.008 µM
